The measured values listed here are drawn from patent US9096532B2.

molecular target: human recombinant COX-2 (Homo sapiens, UniProt P35354); construct: purchased Cayman Chemical 700100; assay: Cyclooxygenase inhibition assay (COX Fluorescent Inhibitor Screening Assay Kit), COX-2; assay type: biochemical; conditions: human recombinant COX-2; triplicate average
Sequence (P35354 18-604): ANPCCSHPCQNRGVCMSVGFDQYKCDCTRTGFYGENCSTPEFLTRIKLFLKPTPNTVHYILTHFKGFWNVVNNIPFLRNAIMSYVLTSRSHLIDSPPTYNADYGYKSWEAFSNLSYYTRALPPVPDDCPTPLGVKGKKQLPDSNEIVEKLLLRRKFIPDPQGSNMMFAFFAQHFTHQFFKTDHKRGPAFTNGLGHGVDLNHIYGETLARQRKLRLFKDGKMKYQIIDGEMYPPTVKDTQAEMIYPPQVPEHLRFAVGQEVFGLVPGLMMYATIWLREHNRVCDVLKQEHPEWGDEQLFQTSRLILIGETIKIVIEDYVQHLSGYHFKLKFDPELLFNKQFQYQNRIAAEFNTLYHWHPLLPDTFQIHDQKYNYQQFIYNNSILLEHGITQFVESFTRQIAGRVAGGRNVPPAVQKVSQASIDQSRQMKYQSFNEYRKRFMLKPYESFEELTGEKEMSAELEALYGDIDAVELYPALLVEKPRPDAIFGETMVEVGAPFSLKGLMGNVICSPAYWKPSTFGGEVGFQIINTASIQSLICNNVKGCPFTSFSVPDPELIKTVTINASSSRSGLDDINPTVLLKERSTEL
Recorded pIC50 for the following compounds
pIC50 is a log-scale quantity: -log10 of the concentration expressed in molar.

1. NS(=O)(=O)c1ccc(-n2nc(CCCNC(=O)Nc3ccc(OC(F)(F)F)cc3)cc2-c2ccccc2)cc1 [Compound 21j] | 6.04

Proceed to the following item.
Req: Item NS(=O)(=O)c1ccc(-n2nc(CCCNC(=O)Nc3cccc(C(F)(F)F)c3)cc2-c2ccccc2)cc1 [Compound 21b] has what recorded pIC50?
Resp: 6.15

###

Molecular target: ovine COX-1 (Ovis aries)
Construct: purchased Cayman Chemical 700100
Sequence (P05979 25-600): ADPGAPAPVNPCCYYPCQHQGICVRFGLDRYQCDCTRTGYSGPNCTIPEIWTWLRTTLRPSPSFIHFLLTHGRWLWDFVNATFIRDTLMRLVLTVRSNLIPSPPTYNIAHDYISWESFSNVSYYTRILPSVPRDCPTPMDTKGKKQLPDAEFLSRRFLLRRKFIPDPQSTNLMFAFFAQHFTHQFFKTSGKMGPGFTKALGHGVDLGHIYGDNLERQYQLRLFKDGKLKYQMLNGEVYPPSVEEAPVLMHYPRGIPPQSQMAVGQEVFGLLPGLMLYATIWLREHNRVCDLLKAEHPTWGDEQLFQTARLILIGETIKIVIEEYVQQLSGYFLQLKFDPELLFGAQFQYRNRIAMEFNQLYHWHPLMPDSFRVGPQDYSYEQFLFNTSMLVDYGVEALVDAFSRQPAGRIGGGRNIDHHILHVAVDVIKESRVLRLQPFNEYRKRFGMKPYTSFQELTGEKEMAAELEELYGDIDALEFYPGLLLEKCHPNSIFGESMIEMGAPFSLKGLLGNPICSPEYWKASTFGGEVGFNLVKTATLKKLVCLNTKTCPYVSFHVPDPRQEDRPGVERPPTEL
Test: Cyclooxygenase inhibition assay (COX Fluorescent Inhibitor Screening Assay Kit), COX-1
Type: biochemical
Details: read-out: COX-1 (% inhibition)
Method: Stock solutions of test compounds are dissolved in a minimum volume of DMSO. […] The intensity of this fluorescence is proportional to the amount of resorufin, which is proportional to the amount of PGG2 present in the well during the incubation. Percent inhibition is calculated by comparison from the 100% initial activity sample value (no inhibitor). […]
Recorded inhibition at 100 µM for the following compounds
Give the value, in units of %, as a plain number.

1. CS(=O)(=O)c1ccc(C2=C(c3ccccc3)C(=O)OC2)cc1 [Rofecoxib, rofecoxib, reference compound] | 16.5

Req: Item NS(=O)(=O)c1ccc(-n2nc(CCCNC(=O)Nc3ccc(OC(F)(F)F)cc3)cc2-c2ccccc2)cc1 [Compound 21j] has what recorded inhibition at 100 µM?
Resp: 13.8

Req: Item CS(=O)(=O)c1ccc(-n2nc(CNC(=O)NC3CCCCCC3)cc2-c2ccccc2)cc1 [Compound 11b] has what recorded inhibition at 100 µM?
Resp: 3.4

###

assay: Pharmacokinetics in mice by oral cassette dosing; format: in vivo; settings: oral cassette dosing at 5 mg/kg, blood
Recorded Cmax for the following compounds
Give the value, in units of nM, as a plain number.

Some solved cases for reference:
1) NS(=O)(=O)c1ccc(-n2nc(CCCNC(=O)Nc3ccccc3)cc2-c2ccccc2)cc1 [Compound 21e] | 100
2) NS(=O)(=O)c1ccc(-n2nc(CCCNC(=O)NC34CC5CC(CC(C5)C3)C4)cc2-c2ccccc2)cc1 [Compound 21f] | 20
3) NS(=O)(=O)c1ccc(-n2nc(CCCNC(=O)Nc3ccc(C(F)(F)F)cc3)cc2-c2ccccc2)cc1 [Compound 21i] | 260

Req: Item NS(=O)(=O)c1ccc(-n2nc(CCCNC(=O)Nc3cccc(C(F)(F)F)c3)cc2-c2ccccc2)cc1 [Compound 21b] has what recorded Cmax?
Resp: 19
